Listed below: normalized RNA/DNA level without ligand (log10) values for each entry.
B1: library; a variant is named by its letters at N, in order (parent)
chain: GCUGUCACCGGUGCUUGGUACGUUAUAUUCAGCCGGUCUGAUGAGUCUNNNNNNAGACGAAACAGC

variants of: B1; experiment: normalized RNA/DNA level without ligand (relative to sTRSVctl = 100) (log10 (% of sTRSVctl)); HEK293T overexpressing SLC46A1; higher = less ribozyme self-cleavage, higher mRNA level; conditions: without (6R,S)-folinic acid; ligand present: no
Readout type: normalized RNA/DNA level without ligand (log10)

    mutant  reported_value
 0  AAAUGC            2.03
 1  UGAUUC            2.06
 2  UAUGGU            1.88
 3  UAAGAU            1.94
 4  CCUCAU            2.03
 5  ACGGAG            1.84
 6  CGCUAU            1.98
 7  AAUUUA            1.97
 8  UUUCCG            1.92
 9  CGCCCC            2.08
10  UAGGGA            1.85
11  GGCCCA            2.05
12  AUAGUC            2.06
13  CCCUAA            2.04
14  GUGUCU            1.98
15  UGGACU            2.01
16  UGCCCA            2.01
